assayed.system: HLA-B*48:01
assay.comment: IEDB peptide-MHC binding, purified MHC/direct/fluorescence; filed as Kd, often an IC50 or EC50 that approximates it; bounds were set here for any values at or beyond the usual limits of such assays
condition: source organism: Bacillus anthracis
pKd: −log10 of the molar value.
experimental.endpoint: pKd

> print(dat)
   ordered.residues  assayed.system  result
1         MSDIFASEV     HLA-B*48:01  ≤ 4.70

The record that follows has no pKd shown yet.
Sample "WFREDRSPV" ; pKd observed: ≤ 4.70

###

assayed.system: HLA-B*27:03
assay.comment: IEDB peptide-MHC binding, purified MHC/competitive/fluorescence; filed as Kd, often an IC50 or EC50 that approximates it; bounds were set here for any values at or beyond the usual limits of such assays
condition: source organism: Reston ebolavirus - Reston (1989)
pKd: −log10 of the molar value.
experimental.endpoint: pKd

The recorded pKd for "QLSLRMLSL" is ≤ 4.70
